Task for the reader: assign each of the following compounds its reported inhibition.
Biological target: 5-hydroxytryptamine receptor 1A (Homo sapiens) (UniProt P08908)
Sequence (P08908 whole entry, looked up): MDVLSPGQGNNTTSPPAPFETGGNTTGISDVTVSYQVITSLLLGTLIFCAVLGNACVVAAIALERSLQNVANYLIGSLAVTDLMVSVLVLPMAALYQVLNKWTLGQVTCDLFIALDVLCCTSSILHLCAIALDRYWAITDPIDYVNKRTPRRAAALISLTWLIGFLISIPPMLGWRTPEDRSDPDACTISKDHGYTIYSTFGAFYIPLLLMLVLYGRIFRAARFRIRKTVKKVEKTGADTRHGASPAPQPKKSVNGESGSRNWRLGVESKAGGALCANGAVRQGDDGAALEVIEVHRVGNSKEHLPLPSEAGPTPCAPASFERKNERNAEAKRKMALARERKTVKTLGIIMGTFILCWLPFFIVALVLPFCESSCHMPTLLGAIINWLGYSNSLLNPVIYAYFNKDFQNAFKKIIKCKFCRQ
Experiment: human 5-HT1a receptor antagonists, primary screen, cell-based, CHO, Ga15 NFAT-bla reporter (AID 612);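 further: receptor stimulated by 5-CT agonist at 100 nM near EC80; beta-lactamase reporter measured by ratiometric fluorescence of a cleavable substrate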
Details: CHO 5-HT1a Ga15 NFAT-bla reporter, antagonist mode; at 10 µM; stronger effect = higher value
Out of some 62,000 compounds screened, about 420 (0.68%) were called active. Many of the other results were omitted from the sample, so actives are more common in it than they were.
Answers are plain numbers, in %.

Some compounds with known inhibition results, for comparison:
# compound, display-unit, inhibition
rows = [
    ("Cc1cccc2nc(CNc3ccc(F)cc3)cn12", "%", -11.2),
    ("O=C(CSc1nnc(Cn2cnc3ccccc32)o1)c1ccccc1", "%", -8.1),
    ("Cc1ccc(CNC(=O)CCCNC(=O)c2ccc(Cl)cc2)n1C", "%", -4.8),
    ("O=C(c1cc(-c2cccc(O)c2)on1)N1CCc2ccccc2C1", "%", -4.3),
]

// each compound listed below needs its inhibition
1. COc1ccc(N2CCN(C3CC(=O)N(c4ccc5c(c4)OCCO5)C3=O)CC2)cc1 (stereo unspecified)
2. O=C(C1CC1)N1CCN=C1SCc1ccc(Cl)cc1

A.
[-12.3, 13]
